These data points were gathered from patent US11655216B2.

molecular target: glutathione-S-transferase (GST) tagged LXRbeta LBD (ligand binding domain) (Homo sapiens); construct: purchased Invitrogen pv4658; assay: LanthaScreen TR-FRET Liver X Receptor Coactivator Assay, LXR beta; assay type: biochemical; details: read-out: LXR beta actiivty at max dose, efficacy (% Emax) in relation to reference dual agonist T0901317
Binarize Emax at 80%; below is 1 (yes), at or above is 0 (no).

Enquiry: For this compound, is Emax lower than 80%? Cc1cc(OC2CC(CC3CCN(C(=O)C(O)(c4cccc(OC5CC5)c4)C(F)(F)F)CC3)C2)ccc1C(=O)N(C)C (single isomer, unassigned) [Example 37-12]
Return: 0 (no)

Enquiry: For this compound, is Emax lower than 80%? CN(C)C(=O)c1ccc(OCCCCC2CCN(C(=O)C(O)(c3cccc(-c4cnn(C)c4)c3)C(F)(F)F)CC2)cc1Cl (single isomer, unassigned) [Example 3-19]
Return: 1 (yes)

Enquiry: For this compound, is Emax lower than 80%? COc1cccc([C@@](O)(C(=O)N2CCC([C@H]3C[C@H]3CCOc3ccc(C(=O)N(C)C)c(Cl)c3)CC2)C(F)(F)F)c1 (single isomer, unassigned) [Example 10-1]
Return: 1 (yes)

Enquiry: For this compound, is Emax lower than 80%? CC(C)(C(=O)N1CCC2(CC1)CC(CCOc1ccc(C(=O)N3CCCC3)c(Cl)c1)C2)c1ccccc1 [Example 34-3]
Return: 1 (yes)

Enquiry: For this compound, is Emax lower than 80%? O=C(c1ccc(OCCCCC2CCN(C(=O)C(O)(c3ccccc3)C(F)(F)F)CC2)cc1Cl)N1C[C@H]2CC[C@@H]1C2 (single isomer, unassigned) [Example 8-14]
Return: 1 (yes)

Enquiry: For this compound, is Emax lower than 80%? COc1cccc(C(O)(C(=O)N2CCC3(CCC(Oc4ccc(C(=O)N(C)C)c(Cl)c4)CC3)CC2)C(F)(F)F)c1 (single isomer, unassigned) [Example 1-1]
Return: 1 (yes)

Enquiry: For this compound, is Emax lower than 80%? CN(C)C(=O)c1ccc(OC2CC(CC3CCN(C(=O)[C@](O)(c4ccccc4)C(F)(F)F)CC3)C2)cc1Cl (single isomer, unassigned) [Example 37-11]
Return: 0 (no)

Enquiry: For this compound, is Emax lower than 80%? CN(C)C(=O)c1ccc(OCCCCC2CCN(C(=O)C(O)(c3ccccc3)C(F)(F)F)CC2)nc1C#N (centres unmarked) [Example 4-1]
Return: 1 (yes)

* * *

molecular target: glutathione-S-transferase (GST) tagged LXRbeta LBD (ligand binding domain) (Homo sapiens, UniProt P55055); construct: purchased Invitrogen pv4658; assay: LanthaScreen TR-FRET Liver X Receptor Coactivator Assay, LXR beta; type: biochemical; settings: read-out: LXR beta actiivty at max dose, efficacy (% Emax) in relation to reference dual agonist T0901317
Sequence (P55055 222-460 limits assumed): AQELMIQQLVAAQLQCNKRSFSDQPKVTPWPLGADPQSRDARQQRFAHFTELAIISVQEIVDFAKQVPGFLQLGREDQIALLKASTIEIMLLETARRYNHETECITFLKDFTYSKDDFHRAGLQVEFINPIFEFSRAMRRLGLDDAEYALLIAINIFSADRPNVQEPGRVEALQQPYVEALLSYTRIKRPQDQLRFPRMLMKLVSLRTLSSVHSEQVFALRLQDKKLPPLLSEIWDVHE
Binarize Emax at 60%; below is true, at or above is false.

Enquiry: For this compound, is Emax lower than 60%? COc1cccc([C@@](O)(C(=O)N2CCC(CC(C)CC(F)(F)Oc3ccc(C(=O)N(C)C)c(Cl)c3)CC2)C(F)(F)F)c1 (single isomer, unassigned)
Return: false

Enquiry: For this compound, is Emax lower than 60%? COc1cccc([C@@](O)(C(=O)N2CCC3(CC2)C[C@@H]3CCCOc2ccc(C(=O)N(C)C)c(Cl)c2)C(F)(F)F)c1 (single isomer, unassigned)
Return: false

Enquiry: For this compound, is Emax lower than 60%? COc1cccc([C@](O)(C(=O)N2CCC(CC[C@H](C)COc3ccc(C(=O)N(C)C)c(Cl)c3)CC2)C(F)(F)F)c1 (single isomer, unassigned)
Return: true

Enquiry: For this compound, is Emax lower than 60%? CN(C)C(=O)c1ccc(OCCCCC2CCN(S(=O)(=O)c3c(Cl)cccc3Cl)CC2)nc1Cl
Return: false

Enquiry: For this compound, is Emax lower than 60%? CC(CCC1CCN(C(=O)[C@](O)(c2ccccc2)C(F)(F)F)CC1)COc1ccc(C(=O)N(C)C)c(Cl)c1 (single isomer, unassigned)
Return: false

Enquiry: For this compound, is Emax lower than 60%? O=C(N[C@H]1CCOC1)c1ccc(OCCCCC2CCN(C(=O)[C@](O)(c3ccccc3)C(F)(F)F)CC2)cc1Cl (single isomer, unassigned)
Return: false

Enquiry: For this compound, is Emax lower than 60%? COc1cccc([C@@](O)(C(=O)N2CCC(CC[C@H](C)COc3ccc(C(N)=O)c(Cl)c3)CC2)C(F)(F)F)c1 (single isomer, unassigned)
Return: true

Enquiry: For this compound, is Emax lower than 60%? C[C@@H](CCC1CCN(C(=O)[C@](O)(c2cc(F)cc(F)c2)C(F)(F)F)CC1)COc1ccc(C(=O)N(C)C)c(Cl)c1 (single isomer, unassigned)
Return: false

Enquiry: For this compound, is Emax lower than 60%? CN(C)C(=O)c1ccc(OCC2(CC3CCN(C(=O)C(O)(c4ccccc4)C(F)(F)F)CC3)CC2)cc1Cl (single isomer, unassigned)
Return: false

Enquiry: For this compound, is Emax lower than 60%? COc1cccc([C@@](O)(C(=O)N2CCC([C@H]3CC[C@@H](Oc4ccc(C(=O)N(C)C)c(Cl)c4)CC3)CC2)C(F)(F)F)c1 (single isomer, unassigned)
Return: false

Enquiry: For this compound, is Emax lower than 60%? CN(C)C(=O)c1ccc(O[C@H]2C[C@@H](CC3CCN(C(=O)[C@](O)(c4ccccc4)C(F)(F)F)CC3)C2)cc1Cl (single isomer, unassigned)
Return: false

Enquiry: For this compound, is Emax lower than 60%? CN(C)C(=O)c1ccc(OCC[C@@H]2CC23CCN(C(=O)C(O)(c2cccc4c2OC(F)(F)O4)C(F)(F)F)CC3)cc1Cl (single isomer, unassigned)
Return: true

Enquiry: For this compound, is Emax lower than 60%? O=C(c1ccc(OCCCCC2CCN(C(=O)[C@](O)(c3ccccc3)C(F)(F)F)CC2)cc1Cl)N1CC[C@@H](O)C1 (single isomer, unassigned)
Return: true

Enquiry: For this compound, is Emax lower than 60%? CN(C)C(=O)c1ccc(OCC[C@@H]2C[C@@H]2C2CCN(C(=O)OCc3ccccc3)CC2)nc1Cl (single isomer, unassigned)
Return: false

Enquiry: For this compound, is Emax lower than 60%? CN(C)C(=O)c1ccc(OCCC2CC23CCN(C(=O)C2(c4ccccc4)CCCN(C(=O)OC(C)(C)C)C2)CC3)cc1Cl (single isomer, unassigned)
Return: true

Enquiry: For this compound, is Emax lower than 60%? CN(C(=O)c1ccc(OCCCCC2CCN(C(=O)[C@](O)(c3ccccc3)C(F)(F)F)CC2)cc1Cl)C1CC1 (single isomer, unassigned)
Return: false

Enquiry: For this compound, is Emax lower than 60%? CN(C)C(=O)c1ccc(OCCC2CC23CCN(C(=O)Cc2cccc(Br)c2)CC3)cc1Cl (single isomer, unassigned)
Return: true

Enquiry: For this compound, is Emax lower than 60%? COc1cccc([C@@](O)(C(=O)N2CCC(CCCCOc3ccc(C(=O)N(C)C)c(C#N)n3)CC2)C(F)(F)F)c1 (single isomer, unassigned)
Return: false
